Cited source for all entries: the supplement of paper PMC10126150

Provide the reported switch fluorescence ratio of each item.
Tested on: ATP;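 further: ATP exposure 15 min at 22 °C before imaging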
Assay: switch fluorescence ratio, 500 uM ATP over buffer (Cy3 cluster intensity, sum of 5 cycles each) (fold (ratio)); higher = stronger signal-on switching upon ATP binding; sequences stand for … in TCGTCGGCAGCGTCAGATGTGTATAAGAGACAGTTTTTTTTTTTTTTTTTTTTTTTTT…TC
Conditions: aptamer strand: ATP DNA aptamer (quencher-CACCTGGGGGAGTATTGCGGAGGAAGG + anchor), 100 nM annealed; ATP concentration: 500 uM
The reply should be a number, written without any unit.

Request: Consider the sequence GGCATCAGGG and give its recorded switch fluorescence ratio.
Response: 1.02

Request: Consider the sequence TAGGCGGCGA and give its recorded switch fluorescence ratio.
Response: 1

Request: Consider the sequence TATAATCGGT and give its recorded switch fluorescence ratio.
Response: 0.975

Request: Consider the sequence CGGTATTCTT and give its recorded switch fluorescence ratio.
Response: 0.988

Request: Consider the sequence TTTATTAAAA and give its recorded switch fluorescence ratio.
Response: 0.99

Request: Consider the sequence TCATATTATC and give its recorded switch fluorescence ratio.
Response: 1

Request: Consider the sequence CAAAAAGGGA and give its recorded switch fluorescence ratio.
Response: 1.02

====

Test system: ATP;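 further: ATP exposure 15 min at 22 °C before imaging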
Assay: switch fluorescence ratio, 500 uM ATP over buffer (Cy3 cluster intensity, sum of 5 cycles each) (fold (ratio)); higher = stronger signal-on switching upon ATP binding; sequences stand for … in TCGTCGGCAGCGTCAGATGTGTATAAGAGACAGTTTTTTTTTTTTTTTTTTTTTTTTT…TC
Conditions: aptamer strand: ATP DNA aptamer (quencher-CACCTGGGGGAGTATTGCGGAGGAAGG + anchor), 100 nM annealed; ATP concentration: 500 uM
quantity.name: switch fluorescence ratio
The reply should be a number, written without any unit.

Request: Consider the sequence GATGATGATG and give its recorded switch fluorescence ratio.
Response: 1.01

Request: Consider the sequence GAGACAGTTA and give its recorded switch fluorescence ratio.
Response: 0.992

Request: Consider the sequence GGGATCATAG and give its recorded switch fluorescence ratio.
Response: 0.996

Request: Consider the sequence AATATAGTTG and give its recorded switch fluorescence ratio.
Response: 1.02

Request: Consider the sequence TTCTGGAAAT and give its recorded switch fluorescence ratio.
Response: 0.994

Request: Consider the sequence CAGGAAAATG and give its recorded switch fluorescence ratio.
Response: 0.994

Request: Consider the sequence AAACGAGGAG and give its recorded switch fluorescence ratio.
Response: 1

Request: Consider the sequence TTTGGATCGT and give its recorded switch fluorescence ratio.
Response: 0.981

Request: Consider the sequence TTTTTTGAAA and give its recorded switch fluorescence ratio.
Response: 1

Request: Consider the sequence TAGAATTTGG and give its recorded switch fluorescence ratio.
Response: 1.01

Request: Consider the sequence CGCCGTTGCG and give its recorded switch fluorescence ratio.
Response: 0.989

Request: Consider the sequence AATTGGTTTT and give its recorded switch fluorescence ratio.
Response: 0.982

Request: Consider the sequence AAAGAAAGCG and give its recorded switch fluorescence ratio.
Response: 0.997

Request: Consider the sequence ATGTTAACTA and give its recorded switch fluorescence ratio.
Response: 0.985

Request: Consider the sequence TAGGGTATGG and give its recorded switch fluorescence ratio.
Response: 0.979

Request: Consider the sequence ACTAAATCGG and give its recorded switch fluorescence ratio.
Response: 1.02

Request: Consider the sequence CGTAGGGGGT and give its recorded switch fluorescence ratio.
Response: 1.01

Request: Consider the sequence TTTATCAAAA and give its recorded switch fluorescence ratio.
Response: 0.993

Request: Consider the sequence AATGGAGATT and give its recorded switch fluorescence ratio.
Response: 0.985

Request: Consider the sequence CTGGGGGTTG and give its recorded switch fluorescence ratio.
Response: 0.989

Request: Consider the sequence AGGGGGAGTA and give its recorded switch fluorescence ratio.
Response: 0.993

Request: Consider the sequence GTTGGCCTCT and give its recorded switch fluorescence ratio.
Response: 1.02

Request: Consider the sequence TTGGGGATTT and give its recorded switch fluorescence ratio.
Response: 0.997

Request: Consider the sequence CGTTCATTTG and give its recorded switch fluorescence ratio.
Response: 0.993

Request: Consider the sequence TGGGGGCACG and give its recorded switch fluorescence ratio.
Response: 1

Request: Consider the sequence ATTTCGGGGT and give its recorded switch fluorescence ratio.
Response: 1.01

Request: Consider the sequence AAGTGTTAAT and give its recorded switch fluorescence ratio.
Response: 0.996

Request: Consider the sequence AAAAGGGTTA and give its recorded switch fluorescence ratio.
Response: 0.998

Request: Consider the sequence TGGGTTCGAT and give its recorded switch fluorescence ratio.
Response: 1.02

Request: Consider the sequence ACTAGGGATG and give its recorded switch fluorescence ratio.
Response: 0.987

Request: Consider the sequence GGGATGTGGG and give its recorded switch fluorescence ratio.
Response: 1

Request: Consider the sequence TTTAAAATTT and give its recorded switch fluorescence ratio.
Response: 1.01

Request: Consider the sequence TATCGGGATT and give its recorded switch fluorescence ratio.
Response: 1.02

Request: Consider the sequence TGGTACGTGG and give its recorded switch fluorescence ratio.
Response: 0.974

Request: Consider the sequence AAATATATTC and give its recorded switch fluorescence ratio.
Response: 1.02

Request: Consider the sequence CAACTTGAAG and give its recorded switch fluorescence ratio.
Response: 0.977
